molecular target: UniProt:P48048; experiment: Thallium Flux Assay (ROMK channel functional thallium flux assay); settings: HEK293 cells stably expressing hROMK (hKir1.1); FluxOR thallium flux, FLIPR-Tetra, 30 min compound incubation; read-out: ROMK TI IC50
Sequence (P48048 whole entry): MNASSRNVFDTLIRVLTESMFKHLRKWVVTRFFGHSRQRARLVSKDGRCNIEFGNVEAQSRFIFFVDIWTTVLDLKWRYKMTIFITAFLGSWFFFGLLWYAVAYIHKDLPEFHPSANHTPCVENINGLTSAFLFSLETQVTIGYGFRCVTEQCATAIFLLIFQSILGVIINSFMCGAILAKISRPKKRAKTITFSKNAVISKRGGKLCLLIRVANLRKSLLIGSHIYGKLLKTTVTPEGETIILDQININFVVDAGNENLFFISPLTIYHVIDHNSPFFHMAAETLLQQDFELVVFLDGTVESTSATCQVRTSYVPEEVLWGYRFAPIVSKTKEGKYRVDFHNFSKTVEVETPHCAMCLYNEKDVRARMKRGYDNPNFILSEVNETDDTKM
pIC50: −log10 of the molar value.
PROPERTY: pIC50

Past entries and their recorded results:
molecule="Cc1nsc(N2CCC3(CCN(C[C@H](O)c4ccc5c(c4C)COC5=O)CC3)C2)n1 [Example 1]" property=pIC50 result_value=6.60
molecule="Cc1cc(N2CCC3(CCN(C[C@H](O)c4ccc5c(c4C)COC5=O)CC3)CC2)nnc1Cl [Example 130]" property=pIC50 result_value=6.26
molecule="CCOc1nccc(N2CCC3(CCN(C[C@H](O)c4ccc5c(c4C)COC5=O)CC3)C2=O)n1 [Example 44]" property=pIC50 result_value=7.18
molecule="O[C@@H](CN1CCC2(CC1)CCN(c1cc(Cl)cnn1)CC2)c1ccc(-n2cnnn2)nc1 [Example 138]" property=pIC50 result_value=6.41

(I) Cc1nsc(N2CCOC3(CCN(C[C@H](O)c4ccc5c(c4C)COC5=O)CC3)C2=O)n1 [Example 28]
(II) Cc1c(C(O)C(C)N2CCC3(CCN(c4ccc(=O)n(C)n4)C3=O)CC2)ccc2c1COC2=O (centres unmarked) [Example 109]
(III) COc1cc(N2CCOC3(CCN(C[C@H](O)c4ccc5c(c4C)COC5=O)CC3)C2=O)ccn1 [Example 23]
Qu. Could you please sort these 3 entries by pIC50 from high to low? // respond by listing labels in the order requested
Ans. II, I, III
(II: 7.70, I: 6.91, III: 6.39)
